Molecular target: MYC (p64);MAX (p21), in MYC:MAX (human;human, UniProt P01106-1;P61244-2 1-439;1-151, |)
Sequence (P01106 16-454, chain 1 of 2): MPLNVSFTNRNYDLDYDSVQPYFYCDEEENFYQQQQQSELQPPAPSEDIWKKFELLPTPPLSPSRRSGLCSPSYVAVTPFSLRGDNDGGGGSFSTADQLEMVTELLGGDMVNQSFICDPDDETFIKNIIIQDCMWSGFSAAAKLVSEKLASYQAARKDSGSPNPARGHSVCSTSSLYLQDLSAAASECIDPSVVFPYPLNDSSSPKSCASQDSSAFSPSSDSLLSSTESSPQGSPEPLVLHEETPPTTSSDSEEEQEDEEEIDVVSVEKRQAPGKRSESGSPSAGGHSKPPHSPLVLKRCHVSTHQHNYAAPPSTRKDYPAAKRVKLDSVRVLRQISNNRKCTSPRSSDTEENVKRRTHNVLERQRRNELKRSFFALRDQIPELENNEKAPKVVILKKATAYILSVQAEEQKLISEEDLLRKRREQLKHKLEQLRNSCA
Sequence (P61244 other isoform, or with tags, fused parts or gaps |, chain 2 of 2): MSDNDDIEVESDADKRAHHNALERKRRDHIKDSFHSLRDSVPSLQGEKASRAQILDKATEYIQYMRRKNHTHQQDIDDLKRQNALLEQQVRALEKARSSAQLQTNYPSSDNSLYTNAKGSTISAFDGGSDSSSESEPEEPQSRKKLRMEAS
Assay: protein-binding microarray (anti-MAX antibody); PBM: 15 mM Tris-HCl pH 7.5, 100 mM KCl, 0.075% NP40, 7.5 mM beta-mercaptoethanol, 375 ng/ul BSA, 8 ng/ul poly(dA-dT):(dA-dT), 550 ng complex, 60 min, room tempe; high values mean tight binding
Settings: protein: recombinant;recombinant; tags: 6xHis;6xHis; copies: 1;1; label: 3' end of printed strand (linker) attached to glass slide; dsDNA, one strand shown
Whole data set: some 5,000 sequences, median “log2 normalized fluorescence” near 0.089, cut for the highest 2% near 0.81. Shown is part of a subset that was picked to be rich in the highest values.
binding signal listing for selected sequences.

Example cases with answers are listed next.
                           ordered_residues                            meas_value
0  CCGGCTGACGTTGTGTATTAATAGCTAAGATTACTATATCGACG     0.16 log2 normalized fluorescence
1  CCGGCTGATAAGGTGTATTAATAGCTAAGATTACTATATCGACG   0.0319 log2 normalized fluorescence
2  CCGGCTGATACAGTGTATTAATAGCTAAGATTACTATATCGACG   0.0568 log2 normalized fluorescence
3  CCGGCTGAAATCGCGTATTAATAGCTAAGATTACTATATCGACG     0.18 log2 normalized fluorescence
4  CCGGCTGATAACAGGTATTAATAGCTAAGATTACTATATCGACG  -0.0157 log2 normalized fluorescence

Endpoint output: binding signal of `CCGGCTGATGAGACGTATTAATAGCTAAGATTACTATATCGACG` . Value?
-0.0198 log2 normalized fluorescence

====

binding signal listing for selected sequences.
Biological target: MYC (p64);MAX (p21), in MYC:MAX (human;human, UniProt P01106-1;P61244-2 1-439;1-151, |)
Assay: protein-binding microarray (anti-MAX antibody); PBM: 15 mM Tris-HCl pH 7.5, 100 mM KCl, 0.075% NP40, 7.5 mM beta-mercaptoethanol, 375 ng/ul BSA, 8 ng/ul poly(dA-dT):(dA-dT), 550 ng complex, 60 min, room tempe; high values mean tight binding
Details: protein: recombinant;recombinant; tags: 6xHis;6xHis; copies: 1;1; label: 3' end of printed strand (linker) attached to glass slide; dsDNA, one strand shown
Whole data set: some 5,000 sequences, median “log2 normalized fluorescence” near 0.089, cut for the highest 2% near 0.81. The sample holds the highest values, similar sequences and a random draw of the others, so the mix is not that of the screen.

>>> print(df.to_string())
                           ordered_residues                           measured_target      observable                          meas_value
0  CCGGCAATCACGTGGTATTAATAGCTAAGATTACTATATCGACG  MYC (p64);MAX (p21), in MYC:MAX (human;human, UniProt P01106-1;P61244-2 1-439;1-151, |)  binding signal   0.75 log2 normalized fluorescence
1  CCGGCTGACGTTTGGTATTAATAGCTAAGATTACTATATCGACG  MYC (p64);MAX (p21), in MYC:MAX (human;human, UniProt P01106-1;P61244-2 1-439;1-151, |)  binding signal  0.243 log2 normalized fluorescence
2  CCGGCTCTTACGTGGTATTAATAGCTAAGATTACTATATCGACG  MYC (p64);MAX (p21), in MYC:MAX (human;human, UniProt P01106-1;P61244-2 1-439;1-151, |)  binding signal  0.358 log2 normalized fluorescence
3  CCGGCTGACCCGTGGTTTTAATAGCTAAGATTACTATATCGACG  MYC (p64);MAX (p21), in MYC:MAX (human;human, UniProt P01106-1;P61244-2 1-439;1-151, |)  binding signal  0.466 log2 normalized fluorescence
4  CCGGCGTTCACGTGGTATTAATAGCTAAGATTACTATATCGACG  MYC (p64);MAX (p21), in MYC:MAX (human;human, UniProt P01106-1;P61244-2 1-439;1-151, |)  binding signal  0.664 log2 normalized fluorescence
5  CCGGCTCATACGTGGTATTAATAGCTAAGATTACTATATCGACG  MYC (p64);MAX (p21), in MYC:MAX (human;human, UniProt P01106-1;P61244-2 1-439;1-151, |)  binding signal  0.558 log2 normalized fluorescence
6  CCGGCTGACACGTGGACTTAATAGCTAAGATTACTATATCGACG  MYC (p64);MAX (p21), in MYC:MAX (human;human, UniProt P01106-1;P61244-2 1-439;1-151, |)  binding signal  0.734 log2 normalized fluorescence
7  CCGGCTGACTGGAGGTATTAATAGCTAAGATTACTATATCGACG  MYC (p64);MAX (p21), in MYC:MAX (human;human, UniProt P01106-1;P61244-2 1-439;1-151, |)  binding signal   0.07 log2 normalized fluorescence
8  CCGGCTTACACGTGGGATTAATAGCTAAGATTACTATATCGACG  MYC (p64);MAX (p21), in MYC:MAX (human;human, UniProt P01106-1;P61244-2 1-439;1-151, |)  binding signal   0.81 log2 normalized fluorescence
9  CCGGCGGACCCGTGGTATTAATAGCTAAGATTACTATATCGACG  MYC (p64);MAX (p21), in MYC:MAX (human;human, UniProt P01106-1;P61244-2 1-439;1-151, |)  binding signal  0.439 log2 normalized fluorescence

Record lookup: for MYC (p64);MAX (p21), in MYC:MAX (human;human, UniProt P01106-1;P61244-2 1-439;1-151, |), what binding signal belongs to `CCGGCTCTCACGTGGTATTAATAGCTAAGATTACTATATCGACG` ?
0.891 log2 normalized fluorescence

Record lookup: for MYC (p64);MAX (p21), in MYC:MAX (human;human, UniProt P01106-1;P61244-2 1-439;1-151, |), what binding signal belongs to `CCGGCAGCCACGTGGTATTAATAGCTAAGATTACTATATCGACG` ?
0.908 log2 normalized fluorescence

Record lookup: for MYC (p64);MAX (p21), in MYC:MAX (human;human, UniProt P01106-1;P61244-2 1-439;1-151, |), what binding signal belongs to `CCGGCTGAACGAAAGTATTAATAGCTAAGATTACTATATCGACG` ?
0.0903 log2 normalized fluorescence

Record lookup: for MYC (p64);MAX (p21), in MYC:MAX (human;human, UniProt P01106-1;P61244-2 1-439;1-151, |), what binding signal belongs to `CCGGCTGACACGTAGCATTAATAGCTAAGATTACTATATCGACG` ?
0.484 log2 normalized fluorescence

Record lookup: for MYC (p64);MAX (p21), in MYC:MAX (human;human, UniProt P01106-1;P61244-2 1-439;1-151, |), what binding signal belongs to `CCGGCTGACAGCAAGTATTAATAGCTAAGATTACTATATCGACG` ?
0.286 log2 normalized fluorescence

Record lookup: for MYC (p64);MAX (p21), in MYC:MAX (human;human, UniProt P01106-1;P61244-2 1-439;1-151, |), what binding signal belongs to `CCGGCTGAAGGCGTGTATTAATAGCTAAGATTACTATATCGACG` ?
0.409 log2 normalized fluorescence

Record lookup: for MYC (p64);MAX (p21), in MYC:MAX (human;human, UniProt P01106-1;P61244-2 1-439;1-151, |), what binding signal belongs to `CCGGCTGAGGACCGGTATTAATAGCTAAGATTACTATATCGACG` ?
-0.014 log2 normalized fluorescence
